Target: 17β-HSD2 (Homo sapiens, UniProt P37059)
Construct: was measured in intact cell monolayers of T47D and MDA-MB-231 breast cancer cells respectively; endogenous in cells; host or cells: MDA-MB-231 human breast cancer cells
Test: 17β-HSD Type II activity in MDA-MB-231 cells (E2→E1)
Type: cell-based
Conditions: 10 μM; MDA-MB-231 cells, E2→E1; read-out: % inhibition of 17β-HSD2 @ 10 μM
MEASURED_QUANTITY: inhibition at 10 µM (%)
Report as a plain number; the unit % is understood.

compound="C[C@]12CCC3c4ccc(O)cc4CCC3C1CC(CC(=O)NCCc1ccccn1)C2=O (stereo partly shown) [compound 691]" measured_value=14
compound="C[C@]12CCC3c4ccc(O)cc4CCC3C1C/C(=C\\c1ccncc1)[C@@H]2O (stereo partly shown) [compound 324]" measured_value=3
compound="COc1cc(/C=C2\\CC3C4CCc5cc(O)ccc5C4CC[C@]3(C)C2=O)cc(OC)c1OC (stereo partly shown) [compound 328]" measured_value=-12

Quick one: inhibition at 10 µM for CCc1cc2c(cc1O)CCC1C2CC[C@]2(C)C(=O)C(CC(=O)NCc3cccnc3)CC12 (stereo partly shown) [compound 1040] ?
-5

Looking for the measured inhibition at 10 µM of CCN(C)C(=O)CC1CC2C3CCc4cc(O)ccc4C3CC[C@]2(C)[C@H]1O (stereo partly shown) [compound 771] , can you help?
16

###

Biological target: 17β-HSD2 (Homo sapiens)
Construct: was measured in intact cell monolayers of T47D and MDA-MB-231 breast cancer cells respectively; endogenous in cells; host or cells: MDA-MB-231 human breast cancer cells
Sequence (P37059 1-387): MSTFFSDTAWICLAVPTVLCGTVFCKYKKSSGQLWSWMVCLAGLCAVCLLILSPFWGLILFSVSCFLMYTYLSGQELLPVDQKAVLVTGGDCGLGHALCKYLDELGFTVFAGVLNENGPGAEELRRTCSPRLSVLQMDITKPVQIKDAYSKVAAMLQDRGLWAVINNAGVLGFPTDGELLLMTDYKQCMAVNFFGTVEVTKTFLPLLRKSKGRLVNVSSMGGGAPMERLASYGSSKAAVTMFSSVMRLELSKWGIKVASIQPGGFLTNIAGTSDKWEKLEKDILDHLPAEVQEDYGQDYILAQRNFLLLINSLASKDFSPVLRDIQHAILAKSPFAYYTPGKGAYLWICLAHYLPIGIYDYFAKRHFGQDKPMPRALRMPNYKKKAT
Experiment: 17β-HSD Type II activity in MDA-MB-231 cells (E2→E1)
Assay type: cell-based
Conditions: MDA-MB-231, read-out: % inhibition of 17β-HSD2 @ 10 μM
MEASURED_QUANTITY: inhibition at 10 µM (%)
Report as a plain number; the unit % is understood.

molecule="CC(C)Cn1cc2c(n1)[C@@]1(C)CCC3c4ccc(O)cc4CCC3C1C2 (some centres unmarked) [compound 812]" measured_value=61
molecule="C[C@]12CCC3c4ccc(O)cc4CCC3C1Cc1c2n[nH]c1C(=O)NCCc1cccnc1 (some centres unmarked) [compound 916]" measured_value=3
molecule="Cn1ncc2c1[C@@]1(C)CCC3c4ccc(O)cc4CCC3C1C2 (some centres unmarked) [compound 786]" measured_value=32
molecule="Cn1cc2c(n1)[C@@]1(C)CCC3c4ccc(O)cc4CCC3C1C2 (some centres unmarked) [compound 785]" measured_value=24
molecule="Cc1cnc(CNC(=O)c2[nH]nc3c2CC2C4CCc5cc(O)ccc5C4CC[C@]32C)cn1 (some centres unmarked) [compound 896]" measured_value=61
molecule="CC(C)NC(=O)C1CC2C3CCc4cc(O)ccc4C3CC[C@]2(C)[C@H]1O (some centres unmarked) [compound 801]" measured_value=-15

Give the measured inhibition at 10 µM of Cn1cccc1CNC(=O)c1[nH]nc2c1CC1C3CCc4cc(O)ccc4C3CC[C@]21C (some centres unmarked) [compound 895] .
-4

What value of inhibition at 10 µM has been recorded for this entry: C[C@]12CCC3c4ccc(O)cc4CCC3C1CC(CC(=O)NCc1ccccn1)C2=O (some centres unmarked) [compound 669]
7
